B1: TPR t1 (parent)
chain: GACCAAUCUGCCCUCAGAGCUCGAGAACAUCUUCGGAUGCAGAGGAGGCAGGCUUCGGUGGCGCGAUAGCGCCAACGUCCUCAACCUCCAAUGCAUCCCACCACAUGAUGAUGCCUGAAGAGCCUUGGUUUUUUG

Variants of: B1
experiment description: polymerase ribozyme fitness, log enrichment relative to wild type (log ratio); higher = more active; in vitro selection for triplet polymerase activity
Label Fulfilled when polymerase ribozyme fitness (log ratio) is at or above -2; otherwise label Not fulfilled.

These solved cases illustrate the format of a correct answer.
G44U G120U U130G : Fulfilled
C15A C70U : Not fulfilled
G61C C89A : Not fulfilled
C13G A16C C85G A121C : Not fulfilled
U21A C22G A27U C56U C114U : Not fulfilled
G58U G61A : Fulfilled

Decide: polymerase ribozyme fitness (log ratio) of C22G G51A C72G >= -2?
Not fulfilled

Decide: polymerase ribozyme fitness (log ratio) of C73G C85U G93U A95G C123A >= -2?
Not fulfilled

Decide: polymerase ribozyme fitness (log ratio) of A2G C11A >= -2?
Fulfilled

Decide: polymerase ribozyme fitness (log ratio) of A6U C101A >= -2?
Fulfilled

Decide: polymerase ribozyme fitness (log ratio) of `C8G` >= -2?
Fulfilled

Decide: polymerase ribozyme fitness (log ratio) of G39U C49U C97A C124A G127A >= -2?
Not fulfilled

Decide: polymerase ribozyme fitness (log ratio) of A16U A37C C53A A91G U112A >= -2?
Fulfilled

Decide: polymerase ribozyme fitness (log ratio) of A75G C80A G128U U133C G135C >= -2?
Not fulfilled

Data credit: the RNAGym collection of RNA variant scans (doi:10.1073/pnas.2313332121)
